Species: Rattus norvegicus
TEST METHOD NOTES: DrugMatrix - Regimen: Daily Repeat
Type: toxicity, organism-based, Sprague-Dawley
Set-up: regimen Daily Repeat, gender Male, age 6-8 weeks
SETTINGS: in vivo, po, 0 mg/kg, 120 h, tissue Plasma, route oral GAVAGE, dose level Control, time 5 day, […]
Kindly supply the reported GLUCOSE values for the records listed here.
Reply with just the number (in mg/dL).

What measured GLUCOSE goes with CCOC(=O)C1=C(COCCN)NC(C)=C(C(=O)OC)C1c1ccccc1Cl (centres undefined) ?
153

Try this compound too: `CN(C)c1nc(N(C)C)nc(N(C)C)n1`
153

Try this compound too: Cc1oncc1C(=O)Nc1ccc(C(F)(F)F)cc1 [LEFLUNOMIDE]
161.33

Try this compound too: CCC(C)n1ncn(-c2ccc(N3CCN(c4ccc(OCC5COC(Cn6cncn6)(c6ccc(Cl)cc6Cl)O5)cc4)CC3)cc2)c1=O (centres undefined)
164.17

----------
Species on record: Rattus norvegicus
TEST METHOD NOTES: DrugMatrix - Regimen: Daily Repeat
Type: toxicity, organism-based, Sprague-Dawley
Set-up: regimen Daily Repeat, gender Male, age 6-8 weeks
SETTINGS: in vivo, po, 0 mg/kg, 72 h, tissue Plasma, route oral GAVAGE, dose level Control, time 3 day, vehicle .5 % CMC
Friendly reminder: CREATININE below 0.2 mg/dL is yes, at or above is no.

Criterion: CREATININE strictly below 0.2 mg/dL. Is it met by `Cc1nc2n(c(=O)c1CCN1CCC(c3noc4cc(F)ccc34)CC1)CCCC2` ?
no

Try this molecule too: `Nc1ccn([C@H]2CC[C@@H](CO)O2)c(=O)n1`
no

Try this molecule too: `O=C(CCCN1CC=C(n2c(=O)[nH]c3ccccc32)CC1)c1ccc(F)cc1`
no

Try this molecule too: `CCn1cc(C(=O)O)c(=O)c2cc(F)c(N3CCNCC3)cc21`
yes

Try this molecule too: CC1CC(OC(=O)C(O)c2ccccc2)CC(C)(C)C1 (centres undefined) [CYCLANDELATE]
no

Try this molecule too: `COc1nc(C)nc(Cl)c1N=C1NCCN1`
yes

Try this molecule too: `Cc1ccc2cc3c(ccc4ccccc43)c3c2c1CC3`
no

Try this molecule too: C1CCC(C(CC2CCCCN2)C2CCCCC2)CC1 (centres undefined)
no

Try this molecule too: `CCOP(=S)(OCC)Oc1nc(Cl)c(Cl)cc1Cl`
no

Try this molecule too: NC1=NC(=O)C(c2ccccc2)O1 (centres undefined)
no

Try this molecule too: `CN1CCN(CCCN2c3ccccc3Sc3ccc(Cl)cc32)CC1`
yes

Try this molecule too: CCCN1C[C@H](CSC)C[C@@H]2c3cccc4[nH]cc(c34)C[C@H]21 [PERGOLIDE]
no

Try this molecule too: `ClC(Br)Br`
yes

Try this molecule too: `CCCCc1oc2ccccc2c1C(=O)c1cc(I)c(OCCN(CC)CC)c(I)c1`
no

Try this molecule too: `ClC(Cl)Br`
yes

Try this molecule too: `Cc1ccc(/N=C/N(C)/C=N/c2ccc(C)cc2C)c(C)c1`
yes

Try this molecule too: `OCCN(CCO)c1nc(N2CCCCC2)c2nc(N(CCO)CCO)nc(N3CCCCC3)c2n1`
no

Try this molecule too: `N=C(N)NCCN1CCCCCCC1`
no

----------
Species on record: Rattus norvegicus
TEST METHOD NOTES: DrugMatrix - Regimen: Daily Repeat
Format: toxicity, organism-based, Sprague-Dawley
Design: regimen Daily Repeat, gender Male, age 6-8 weeks
SETTINGS: in vivo, po, 0 mg/kg, 72 h, tissue Blood, route oral GAVAGE, dose level Control, time 3 day, vehicle .5 % CMC
QUANTITY KIND: ABSOLUTE LYMPHOCYTE
Show the value, then the unit it is measured in.

What measured ABSOLUTE LYMPHOCYTE goes with `CC(C)(C)NC(=O)[C@@H]1C[C@@H]2CCCC[C@@H]2CN1C[C@@H](O)[C@H](Cc1ccccc1)NC(=O)[C@H](CC(N)=O)NC(=O)c1ccc2ccccc2n1` ?
14453 CELLS/uL

Try this molecule too: ClC(Br)Br [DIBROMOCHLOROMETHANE]
13152.5 CELLS/uL

Try this molecule too: CN1CCN(CCCN2c3ccccc3Sc3ccc(Cl)cc32)CC1 [PROCHLORPERAZINE]
10913.67 CELLS/uL

----------
Organism: Rattus norvegicus
TEST METHOD NOTES: DrugMatrix - Regimen: Daily Repeat
Assay type: toxicity, organism-based, Sprague-Dawley
Parameters: regimen Daily Repeat, gender Male, age 6-8 weeks
SETTINGS: in vivo, po, 0 mg/kg, 72 h, tissue Plasma, route oral GAVAGE, dose level Control, time 3 day, vehicle .5 % CMC
QUANTITY KIND: LIPASE (u/L)
Reply with just the number (in u/L).

What measured LIPASE goes with `CN1CCN(CCCN2c3ccccc3Sc3ccc(Cl)cc32)CC1` ?
9.17

Try this compound too: `COc1nc(C)nc(Cl)c1N=C1NCCN1`
9.33

Try this compound too: `ClC(Cl)Br`
10

Try this compound too: `Nc1ccn([C@H]2CC[C@@H](CO)O2)c(=O)n1`
9.33

Try this compound too: CCCN1C[C@H](CSC)C[C@@H]2c3cccc4[nH]cc(c34)C[C@H]21 [PERGOLIDE]
9.8

----------
Kindly supply the reported MONOCYTE values for the records listed here.
Species on record: Rattus norvegicus
TEST METHOD NOTES: DrugMatrix - Regimen: Daily Repeat
Format: toxicity, organism-based, Sprague-Dawley
Parameters: regimen Daily Repeat, gender Male, age 6-8 weeks
SETTINGS: in vivo, iv, 0 mg/kg, 72 h, tissue Blood, dose level Control, time 3 day, vehicle 100 % SALINE
Starred links: 1 amine or outer side, 2 acyl side, 3 side chain; linkers in the order of their positions; H or OH if unused. Positions of bridges follow the written chain, without caps; N, C: chain ends. Non-standard residues stand in square brackets, D forms with d. Residues, ends and D or L forms follow the SMILES beside them. Chains are numbered I, II in the order given. Actinocin(9to1) = Cc1c2oc3c(C)ccc(C(=O)[*:1])c3nc-2c(C(=O)[*:2])c(N)c1=O; NMeV = CN[C@H](C(=O)O)C(C)C; Sar = CNCC(=O)O
Reply with just the number (in %).

What measured MONOCYTE goes with `COc1cc2c3cc1Oc1cc(ccc1O)C[C@@H]1c4c(cc(OC)c(O)c4Oc4ccc(cc4)C[C@@H]3N(C)CC2)CC[N+]1(C)C.[Cl-]` ?
1.33

Try this molecule too: Cc1ccc(N(CC2=NCCN2)c2cccc(O)c2)cc1 [PHENTOLAMINE]
1.17

Try this molecule too: CC[C@]1(O)C[C@H]2CN(CCc3c([nH]c4ccccc34)[C@@](C(=O)OC)(c3cc4c(cc3OC)N(C=O)[C@H]3[C@@](O)(C(=O)OC)[C@H](OC(C)=O)[C@]5(CC)C=CCN6CC[C@]43[C@@H]65)C2)C1 [VINCRISTINE]
0.83

Try this molecule too: Cc1c2oc3c(C)ccc(C(=O)N[C@@H]4C(=O)N[C@H](C(C)C)C(=O)N5CCC[C@H]5C(=O)N(C)CC(=O)N(C)[C@@H](C(C)C)C(=O)O[C@@H]4C)c3nc-2c(C(=O)N[C@@H]2C(=O)N[C@H](C(C)C)C(=O)N3CCC[C@H]3C(=O)N(C)CC(=O)N(C)[C@@H](C(C)C)C(=O)O[C@@H]2C)c(N)c1=O [DACTINOMYCIN] (I: T[dV]P[Sar][NMeV] / II: T[dV]P[Sar][NMeV]; ester I:1-I:C, II:1-II:C; linker I:N-II:N via Actinocin(9to1))
1.83

----------
Species on record: Rattus norvegicus
TEST METHOD NOTES: DrugMatrix - Regimen: Daily Repeat
Format: toxicity, organism-based, Sprague-Dawley
Parameters: regimen Daily Repeat, gender Male, age 6-8 weeks
SETTINGS: in vivo, po, 0 mg/kg, 72 h, tissue Blood, route oral GAVAGE, dose level Control, time 3 day, […]
Friendly reminder: ABSOLUTE SEGMENTED NEUTROPHIL below 1000 CELLS/uL is criterion met, at or above is criterion not met.

Criterion: ABSOLUTE SEGMENTED NEUTROPHIL strictly below 1000 CELLS/uL. Is it met by `Cc1ccc(-c2cc(C(F)(F)F)nn2-c2ccc(S(N)(=O)=O)cc2)cc1` ?
criterion not met

Try this compound too: CC(C)C(=O)Nc1ccc([N+](=O)[O-])c(C(F)(F)F)c1 [FLUTAMIDE]
criterion met

Try this compound too: `O=C(O)CCCc1ccc(N(CCCl)CCCl)cc1`
criterion not met

Try this compound too: `C[C@H]1O[C@@H](O[C@H]2[C@@H](O)C[C@H](O[C@H]3[C@@H](O)C[C@H](O[C@H]4CC[C@@]5(C)[C@H](CC[C@@H]6[C@@H]5C[C@@H](O)[C@]5(C)[C@@H](C7=CC(=O)OC7)CC[C@]65O)C4)O[C@@H]3C)O[C@@H]2C)C[C@H](O)[C@@H]1O`
criterion met

Try this compound too: `CC(C)(Oc1ccc(Cl)cc1)C(=O)O`
criterion not met

Try this compound too: `O=c1oc2ccccc2c(O)c1Cc1c(O)c2ccccc2oc1=O`
criterion met

Try this compound too: `Cc1noc(NS(=O)(=O)c2ccc(N)cc2)c1C`
criterion not met
